- Tested on: trachealis muscle tissue
- protocol: Inhibition of calcium dependent smooth muscle contraction, trachea (P#176 Trach)
- Parameters: species or system dog
- condition_notes: Canis lupus familiaris, 2.0 μM; 50 mM KCl contraction; read-out: P#176 Trach % INHB/μM
- Method: The test for inhibition of calcium dependent smooth muscle contraction is determined according to the following procedure: The trachea and the aorta from dogs sacrificed by excess KCl injection are stored overnight at 4° C. in oxygenated Krebs-Henseleit buffer. […] The tissues are then challenged with 50 mM KCl and, after 30 minutes, the contractions are quantitated. […] After 30 minutes, the contraction is recorded and used to determine the % inhibition of control. […]
I would appreciate it if you labelled entries Y when inhibition at 2 µM is 50% or higher, otherwise N.

compound: CCOC(=O)C1=C(C)NC2=C(C1c1cccc(Cl)c1Cl)S(=O)(=O)CCN(C(C)C)C2 (centres unmarked)
target_desc: trachealis muscle tissue
label: Y
//
compound: CCOC(=O)C1=C(C)NC2=C(C1c1cccc([N+](=O)[O-])c1)S(=O)(=O)CCNC2 (centres unmarked)
target_desc: trachealis muscle tissue
label: Y
//
compound: CCOC(=O)C1=C(C)NC2=C(C1c1cccc3nonc13)S(=O)(=O)CCNC2 (centres unmarked)
target_desc: trachealis muscle tissue
label: Y
//
compound: CCOC(=O)C1=C(C)NC2=C(C1c1ccccc1C(F)(F)F)S(=O)(=O)CCNC2 (centres unmarked)
target_desc: trachealis muscle tissue
label: Y
//
compound: CCCCCCCN1CCS(=O)(=O)C2=C(C1)NC(C)=C(C(=O)OCC)C2c1cccc(Cl)c1Cl (centres unmarked)
target_desc: trachealis muscle tissue
label: N
//
compound: CC1=C(C(=O)OCCN(C)Cc2ccccc2)C(c2cccc(Cl)c2Cl)C2=C(CN(C)CCS2(=O)=O)N1 (centres unmarked)
target_desc: trachealis muscle tissue
label: Y
//
compound: CCOC(=O)C1=C(C)NC2=C(C1c1cccc(Cl)c1Cl)S(=O)(=O)CCN(C(=O)CN)C2 (centres unmarked)
target_desc: trachealis muscle tissue
label: N
//
compound: CCOC(=O)C1=C(C)NC2=C(C1c1cccc(Cl)c1Cl)S(=O)(=O)CCN(C(=O)OC(C)(C)C)C2 (centres unmarked)
target_desc: trachealis muscle tissue
label: N
//
compound: CCOC(=O)C1=C(C)NC2=C(C1c1c(F)c(F)c(F)c(F)c1F)S(=O)(=O)CCN(C(=O)OC(C)(C)C)C2 (centres unmarked)
target_desc: trachealis muscle tissue
label: N
//
compound: CCOC(=O)C1=C(C)NC2=C(C1c1cccc(Cl)c1Cl)S(=O)(=O)c1ccccc1N(C=O)C2 (centres unmarked)
target_desc: trachealis muscle tissue
label: Y
//
compound: CCOC(=O)C1=C(C)NC2=C(C1c1cccc(Cl)c1Cl)S(=O)(=O)CCN(C)C2 (centres unmarked)
target_desc: trachealis muscle tissue
label: Y
//
compound: CCOC(=O)C1=C(C)NC2=C(C1c1c(F)c(F)c(F)c(F)c1F)S(=O)(=O)CCNC2 (centres unmarked)
target_desc: trachealis muscle tissue
label: Y
//
compound: CCCN1CCS(=O)(=O)C2=C(C1)NC(C)=C(C(=O)OCC)C2c1cccc(Cl)c1Cl (centres unmarked)
target_desc: trachealis muscle tissue
label: Y

====

- target_desc: Calcium Channel (3H-nitrendipine binding, heart membranes) (Oryctolagus cuniculus, UniProt P15381)
- Construct: the heart is immediately removed, cleaned and chopped into small pieces; The tissue is homogenized
- Sequence (P15381 whole entry, other chains not shown): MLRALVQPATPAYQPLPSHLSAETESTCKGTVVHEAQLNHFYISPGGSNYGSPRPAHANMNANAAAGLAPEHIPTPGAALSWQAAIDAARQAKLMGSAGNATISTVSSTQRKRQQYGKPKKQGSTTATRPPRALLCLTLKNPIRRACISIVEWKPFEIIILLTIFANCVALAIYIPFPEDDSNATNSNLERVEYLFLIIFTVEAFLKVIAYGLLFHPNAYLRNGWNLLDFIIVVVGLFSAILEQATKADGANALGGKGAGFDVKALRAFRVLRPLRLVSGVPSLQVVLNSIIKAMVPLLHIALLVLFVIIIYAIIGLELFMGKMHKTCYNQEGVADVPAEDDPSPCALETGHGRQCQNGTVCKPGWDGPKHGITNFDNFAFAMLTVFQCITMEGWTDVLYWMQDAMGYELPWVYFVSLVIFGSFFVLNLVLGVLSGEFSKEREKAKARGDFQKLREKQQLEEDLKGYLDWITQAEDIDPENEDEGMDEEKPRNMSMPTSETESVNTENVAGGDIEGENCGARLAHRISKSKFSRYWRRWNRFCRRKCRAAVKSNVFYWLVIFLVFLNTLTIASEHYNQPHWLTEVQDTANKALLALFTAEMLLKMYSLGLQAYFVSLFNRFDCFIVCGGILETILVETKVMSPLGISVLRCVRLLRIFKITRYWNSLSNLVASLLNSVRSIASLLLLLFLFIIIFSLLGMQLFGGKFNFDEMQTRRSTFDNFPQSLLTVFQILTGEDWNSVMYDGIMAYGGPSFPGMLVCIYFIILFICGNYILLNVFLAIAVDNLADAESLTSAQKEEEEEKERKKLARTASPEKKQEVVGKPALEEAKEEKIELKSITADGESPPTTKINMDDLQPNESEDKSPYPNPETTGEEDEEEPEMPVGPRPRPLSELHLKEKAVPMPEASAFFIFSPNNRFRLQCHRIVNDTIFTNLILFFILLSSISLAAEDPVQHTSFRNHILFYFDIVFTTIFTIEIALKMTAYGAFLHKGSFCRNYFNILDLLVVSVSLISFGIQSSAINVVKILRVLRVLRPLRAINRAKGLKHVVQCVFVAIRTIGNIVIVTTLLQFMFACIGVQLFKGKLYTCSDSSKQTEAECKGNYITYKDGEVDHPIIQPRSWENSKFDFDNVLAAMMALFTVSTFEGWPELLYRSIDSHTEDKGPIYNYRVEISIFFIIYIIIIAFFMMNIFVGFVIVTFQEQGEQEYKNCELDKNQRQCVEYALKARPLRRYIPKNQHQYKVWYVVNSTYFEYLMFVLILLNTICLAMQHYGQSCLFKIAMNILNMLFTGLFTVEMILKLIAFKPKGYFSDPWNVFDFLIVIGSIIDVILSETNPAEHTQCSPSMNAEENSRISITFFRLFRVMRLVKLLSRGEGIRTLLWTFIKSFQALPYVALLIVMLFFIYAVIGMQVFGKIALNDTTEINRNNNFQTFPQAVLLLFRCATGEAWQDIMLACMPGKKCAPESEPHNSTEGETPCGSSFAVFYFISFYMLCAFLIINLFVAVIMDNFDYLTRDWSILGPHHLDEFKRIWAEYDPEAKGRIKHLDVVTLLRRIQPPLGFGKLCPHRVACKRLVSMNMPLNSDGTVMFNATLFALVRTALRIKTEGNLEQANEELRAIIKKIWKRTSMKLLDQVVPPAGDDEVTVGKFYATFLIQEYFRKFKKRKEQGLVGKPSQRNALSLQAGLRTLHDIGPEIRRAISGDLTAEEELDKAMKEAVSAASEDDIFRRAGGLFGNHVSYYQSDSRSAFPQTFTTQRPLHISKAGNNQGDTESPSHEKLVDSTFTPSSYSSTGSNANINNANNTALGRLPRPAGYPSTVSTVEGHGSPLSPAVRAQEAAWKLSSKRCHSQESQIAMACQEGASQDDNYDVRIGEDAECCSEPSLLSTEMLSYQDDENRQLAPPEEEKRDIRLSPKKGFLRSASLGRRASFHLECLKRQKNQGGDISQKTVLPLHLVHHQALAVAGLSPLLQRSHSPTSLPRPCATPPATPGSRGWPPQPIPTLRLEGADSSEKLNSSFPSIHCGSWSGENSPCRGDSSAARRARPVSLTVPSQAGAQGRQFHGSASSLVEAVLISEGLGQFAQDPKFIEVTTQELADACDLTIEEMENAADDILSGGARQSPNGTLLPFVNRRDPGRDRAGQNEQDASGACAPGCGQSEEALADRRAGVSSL
- Sequence (P13806 27-960 partner limits assumed, other chains not shown): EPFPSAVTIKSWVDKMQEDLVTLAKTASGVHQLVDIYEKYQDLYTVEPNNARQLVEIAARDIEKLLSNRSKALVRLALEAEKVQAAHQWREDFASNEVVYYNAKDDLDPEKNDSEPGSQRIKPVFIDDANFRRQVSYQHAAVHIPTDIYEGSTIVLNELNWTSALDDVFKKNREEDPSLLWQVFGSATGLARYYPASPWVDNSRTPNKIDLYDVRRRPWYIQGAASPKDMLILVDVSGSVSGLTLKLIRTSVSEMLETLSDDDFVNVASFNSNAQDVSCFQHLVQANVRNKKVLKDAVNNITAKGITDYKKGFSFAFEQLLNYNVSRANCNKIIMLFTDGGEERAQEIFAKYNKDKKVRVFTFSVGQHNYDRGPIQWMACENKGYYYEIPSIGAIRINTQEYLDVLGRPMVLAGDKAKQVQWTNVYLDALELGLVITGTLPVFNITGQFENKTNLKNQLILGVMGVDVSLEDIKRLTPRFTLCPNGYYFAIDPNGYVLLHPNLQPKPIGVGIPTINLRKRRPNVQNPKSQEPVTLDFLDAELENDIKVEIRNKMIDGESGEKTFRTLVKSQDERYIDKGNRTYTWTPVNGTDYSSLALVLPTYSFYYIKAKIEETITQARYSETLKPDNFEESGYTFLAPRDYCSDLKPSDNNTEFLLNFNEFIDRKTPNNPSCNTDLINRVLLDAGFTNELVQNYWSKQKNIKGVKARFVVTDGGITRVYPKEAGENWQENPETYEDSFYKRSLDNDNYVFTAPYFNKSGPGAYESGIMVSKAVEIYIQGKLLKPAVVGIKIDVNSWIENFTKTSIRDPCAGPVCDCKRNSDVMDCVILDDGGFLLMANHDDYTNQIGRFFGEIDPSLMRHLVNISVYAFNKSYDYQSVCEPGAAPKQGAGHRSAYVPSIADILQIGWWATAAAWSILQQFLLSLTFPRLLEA
- Sequence (P13806 961-1106 partner limits assumed, other chains not shown): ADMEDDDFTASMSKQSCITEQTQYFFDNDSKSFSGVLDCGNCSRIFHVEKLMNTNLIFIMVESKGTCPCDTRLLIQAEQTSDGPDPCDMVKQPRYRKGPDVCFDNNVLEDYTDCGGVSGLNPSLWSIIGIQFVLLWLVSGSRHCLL
- protocol: Inhibition of 3H-nitrendipine binding (P#166 Nit. Binding)
- condition_notes: rabbit heart membranes, 3H-nitrendipine 0.05-0.50 nM
readout_label: IC50 (nM)

compound: CC1=C(C(=O)OCCN(C)Cc2ccccc2)C(c2cccc(Cl)c2Cl)C2=C(CN(C)CCS2(=O)=O)N1 (stereo not shown)
readout_label: IC50
measured: 150

compound: CCOC(=O)C1=C(C)NC2=C(C1c1cccc3nonc13)S(=O)(=O)CCNC2 (stereo not shown)
readout_label: IC50
measured: 660

compound: CCCN1CCS(=O)(=O)C2=C(C1)NC(C)=C(C(=O)OCC)C2c1cccc(Cl)c1Cl (stereo not shown)
readout_label: IC50
measured: 145

compound: CCOC(=O)C1=C(C)NC2=C(C1c1c(F)c(F)c(F)c(F)c1F)S(=O)(=O)CCN(C)C2 (stereo not shown)
readout_label: IC50
measured: 53

compound: CCOC(=O)C1=C(C)NC2=C(C1c1c(F)c(F)c(F)c(F)c1F)S(=O)(=O)CCNC2 (stereo not shown)
readout_label: IC50
measured: 90

compound: CCOC(=O)C1=C(C)NC2=C(C1c1cccc(Cl)c1Cl)S(=O)(=O)CCN(Cc1ccccc1)C2 (stereo not shown)
readout_label: IC50
measured: 210

compound: CCOC(=O)C1=C(C)NC2=C(C1c1cccc(Cl)c1Cl)S(=O)(=O)CCN(C(C)C)C2 (stereo not shown)
readout_label: IC50
measured: 72

compound: CCOC(=O)C1=C(C)NC2=C(C1c1cccc(Cl)c1Cl)S(=O)(=O)CCN(CC)C2 (stereo not shown)
readout_label: IC50
measured: 60

compound: CCOC(=O)C1=C(C)NC2=C(C1c1cccc([N+](=O)[O-])c1)S(=O)(=O)CCNC2 (stereo not shown)
readout_label: IC50
measured: 240

compound: CCOC(=O)C1=C(C)NC2=C(C1c1ccccc1C(F)(F)F)S(=O)(=O)CCNC2 (stereo not shown)
readout_label: IC50
measured: 360

compound: CC1=C(C(=O)OCCN(C)Cc2ccccc2)C(c2cccc(Cl)c2Cl)C2=C(CNCCS2(=O)=O)N1 (stereo not shown)
readout_label: IC50
measured: 380

compound: CCOC(=O)C1=C(C)NC2=C(C1c1c(F)cccc1Cl)S(=O)(=O)CCNC2 (stereo not shown)
readout_label: IC50
measured: 870

compound: CCOC(=O)C1=C(C)NC2=C(C1c1cccc(Cl)c1Cl)S(=O)(=O)CCN(C)C2 (stereo not shown)
readout_label: IC50
measured: 120
